Origin of measurements: paper PMC10755728

- test details: in vivo
- test conditions: male, CD-1, mouse, epithelial lining fluid (ELF), inhaled or intranasal, 10 mg/kg, mice, nebulization 10 mg/kg; read-out: Cmax ELF
readout name: Cmax (ng/mL)
Give bare numbers, in ng/mL.

Problem: Need Cmax, item CC(C)CC(C(=O)Nc1ccc(C(F)(F)F)cc1)P(=O)(O)O (stereo not shown)
Result: 19900

----------
- test details: in vivo
- test conditions: male, CD-1, mouse, plasma, inhaled or intranasal; mice, nebulization 10 mg/kg; read-out: AUC 0-t plasma
readout name: AUC(0-t) (ng·h/mL)
Numbers only, in ng·h/mL.

Problem: Need AUC(0-t), item CC(C)CC(C(=O)Nc1ccc(C(F)(F)F)cc1)P(=O)(O)O (stereo not shown)
Result: 8130

----------
Please provide measured half-life for the entries that follow.
- test details: Plasma stability, minipig
- Type: in vitro ADME
- test conditions: Göttingen, pooled plasma, species profiling, read-out: Plasma T1/2 Minipig (Göttingen)

Examples from the recorded data:
> print(dat)
                                   compound  result
1  Cc1ccc(NC(=O)C(CC(C)C)P(=O)(O)O)cc1 (stereo not drawn) [Compound 4a]   > 4 h
2  CC(C)CC(C(=O)Nc1ccc(C(F)(F)F)cc1)P(=O)(O)O (stereo not drawn) [Compound 4b]   > 4 h

Problem: Need half-life, item CC(C)CC(C(=O)Nc1ccc(F)cc1)P(=O)(O)O (stereo not drawn) [Compound 4h]
Result: > 4 h

----------
- test details: in vivo
- test conditions: male, CD-1, mouse, plasma, inhaled or intranasal, 10 mg/kg, mice, nebulization 10 mg/kg; read-out: Cmax plasma
readout name: Cmax
Form entry: enter the amount, then its unit.

Problem: Need Cmax, item CC(C)CC(C(=O)Nc1ccc(C(F)(F)F)cc1)P(=O)(O)O (stereo not shown) [Compound 4b]
Result: 633 ng/mL

----------
Please provide measured IC50 for the entries that follow.
- assayed system: LasB (Pseudomonas aeruginosa)
- Construct: made in house
- Sequence (Q02RJ6 198-498): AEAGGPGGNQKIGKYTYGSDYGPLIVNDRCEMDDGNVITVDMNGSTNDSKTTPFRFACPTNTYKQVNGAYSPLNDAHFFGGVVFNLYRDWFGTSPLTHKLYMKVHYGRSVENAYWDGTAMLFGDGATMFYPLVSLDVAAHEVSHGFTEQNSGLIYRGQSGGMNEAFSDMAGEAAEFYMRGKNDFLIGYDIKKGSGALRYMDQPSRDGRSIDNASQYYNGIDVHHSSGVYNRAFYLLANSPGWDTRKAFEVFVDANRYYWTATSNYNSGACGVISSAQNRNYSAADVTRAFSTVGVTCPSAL
- test details: biochemical
- Format: biochemical
- test conditions: LasB IC50, FRET-based assay
One number for each entry, in nM.

Examples from the recorded data:
> print(dat)
                                   molecule  number
1  CCCC(C(=O)Nc1ccc(C(C)=O)cc1)P(=O)(O)O (centres unmarked)     870
2  CC(C)CC(C(=O)Nc1ccc(Cl)c(Cl)c1)P(=O)(O)O (centres unmarked)    25.7
3  CC(C)CC(C(=O)Nc1ccc(C(N)=O)nc1)P(=O)(O)O (centres unmarked)     220

// next item, IC50 requested
Problem: Need IC50, item Cc1ccc(NC(=O)C(CC(C)C)OS(N)(=O)=O)cc1 (centres unmarked)
Result: 53000

----------
- test details: Metabolic stability in human liver S9 fraction
- Type: in vitro ADME
readout name: microsomal CLint at 1 μM

Examples from the recorded data:
> print(dat)
                                   compound           result
1  Cc1ccc(NC(=O)C(CC(C)C)n2ccnn2)cc1 (centres unmarked)    8.8 µL/min/mg
2  Cc1ccc(NC(=O)C(CC(C)C)C(=O)NO)cc1 (centres unmarked)  < 5.8 µL/min/mg
3  CC(C)CC(C(=O)Nc1ccc(C(F)(F)F)cc1)P(=O)(O)O (centres unmarked)  < 5.8 µL/min/mg

Give microsomal CLint at 1 μM for each of the items listed below.
1. CC(C)CC(C(=O)Nc1ccc(F)cc1)P(=O)(O)O (centres unmarked)
2. CC(C)CC(C(=O)Nc1ccc(C#N)cc1)P(=O)(O)O (centres unmarked)
3. Cc1ccc(NC(=O)C(CC(C)C)n2nccn2)cc1 (centres unmarked)
4. Cc1ccc(NC(=O)C(CC(C)C)S(=O)(=O)O)cc1 (centres unmarked)
5. Cc1ccc(NC(=O)C(CC(C)C)P(=O)(O)O)cc1 (centres unmarked)

Result:
1: < 5.8 µL/min/mg; 2: < 5.8 µL/min/mg; 3: 18.5 µL/min/mg; 4: < 5.8 µL/min/mg; 5: < 5.8 µL/min/mg
